- PROCEDURE SUMMARY: Pharmacokinetics of different forms in beagle dogs
- Assay type: in vivo
- TEST CONDITIONS: male, beagle, dog, plasma, po, 3 mg/kg, capsule
OBSERVED PROPERTY: AUC(0-inf) (ng·h/mL)

| MOLECULE | OBSERVED PROPERTY | DISPLAY UNIT | DATA VALUE |
| --- | --- | --- | --- |
| C=CC(=O)Nc1cc2c(Nc3ccc(F)c(Cl)c3)ncnc2cc1OCC1CC2(CCN(C)CC2)C1 [Crystal form I] | AUC(0-inf) | ng·h/mL | 115 |

----------
- PROCEDURE SUMMARY: Soluble property test in water
- Format: physicochemical
- TEST CONDITIONS: 25 °C, thermodynamic from solid

| COMPOUND | solubility |
| --- | --- |
| C=CC(=O)Nc1cc2c(Nc3ccc(F)c(Cl)c3)ncnc2cc1OCC1CC2(CCN(C)CC2)C1 [Crystal form I] | 20 mg/mL |

----------
- PROCEDURE SUMMARY: Solubility test (saturated solubility) in water
- Format: physicochemical
- TEST CONDITIONS: thermodynamic from solid

| COMPOUND | solubility, mg/mL |
| --- | --- |
| C=CC(=O)Nc1cc2c(Nc3ccc(F)c(Cl)c3)ncnc2cc1OCC1CC2(CCN(C)CC2)C1 [Crystal form I] | 39.1 |
